assay: Solubility of acetate form of SEQ ID NO: 1 in various media; assay type: physicochemical; conditions: 0.01 N HCl, aqueous buffer
metric name: solubility (mg/mL)
Report the figure in mg/mL without appending any unit label.

According to the records, this compound CC(=O)NCCCC[C@@H]1NC(=O)[C@H](Cc2c[nH]c3c(C)cccc23)NC(=O)[C@H]([C@@H](C)O)NC(=O)[C@H](CC(N)=O)NC(=O)[C@@H](NC(C)=O)C(C)(C)SSC(C)(C)[C@@H](C(=O)N[C@@H](Cc2ccc(OCCN)cc2)C(=O)N[C@@H](Cc2ccc3ccccc3c2)C(=O)NC2(C(=O)N[C@@H](CCC(=O)O)C(=O)N[C@@H](CC(N)=O)C(=O)N[C@@H](Cc3cccnc3)C(=O)N(C)CC(N)=O)CCOCC2)NC1=O [Acetate Form of SEQ ID NO: 1] displays solubility of 95

###

experiment: Rat PK Study 1: intraduodenal/intracolonic dosing with absorption enhancers; type: in vivo, Sprague Dawley rats; conditions: male, Sprague Dawley, plasma, other: intracolonic, 10 mg/kg, IC dose 10 mg/kg, NaC10 100 mg/kg
metric name: Tmax (min)
Report the figure in min without appending any unit label.

According to the records, this molecule CC(=O)NCCCC[C@@H]1NC(=O)[C@H](Cc2c[nH]c3c(C)cccc23)NC(=O)[C@H]([C@@H](C)O)NC(=O)[C@H](CC(N)=O)NC(=O)[C@@H](NC(C)=O)C(C)(C)SSC(C)(C)[C@@H](C(=O)N[C@@H](Cc2ccc(OCCN)cc2)C(=O)N[C@@H](Cc2ccc3ccccc3c2)C(=O)NC2(C(=O)N[C@@H](CCC(=O)O)C(=O)N[C@@H](CC(N)=O)C(=O)N[C@@H](Cc3cccnc3)C(=O)N(C)CC(N)=O)CCOCC2)NC1=O displays Tmax of 20

###

experiment: Colon and colonic content concentrations in rat TNBS colitis model (LC-MS/MS); format: in vivo, Sprague Dawley rats; details: Sprague Dawley, colon content, po, 0.33 mg/kg, Study 2, 0.33 mg/kg TID oral, total daily dose 1 mg/kg, read-out: Mean concentration in Colon content
metric name: tissue level at time at 168 h (ng/g)
Report the figure in ng/g without appending any unit label.

According to the records, this molecule CC(=O)NCCCC[C@@H]1NC(=O)[C@H](Cc2c[nH]c3c(C)cccc23)NC(=O)[C@H]([C@@H](C)O)NC(=O)[C@H](CC(N)=O)NC(=O)[C@@H](NC(C)=O)C(C)(C)SSC(C)(C)[C@@H](C(=O)N[C@@H](Cc2ccc(OCCN)cc2)C(=O)N[C@@H](Cc2ccc3ccccc3c2)C(=O)NC2(C(=O)N[C@@H](CCC(=O)O)C(=O)N[C@@H](CC(N)=O)C(=O)N[C@@H](Cc3cccnc3)C(=O)N(C)CC(N)=O)CCOCC2)NC1=O displays tissue level at time at 168 h of 7440

###

Assay: Rat PK Study 1: intraduodenal/intracolonic dosing with absorption enhancers
Type: in vivo, Sprague Dawley rats
Conditions: male, Sprague Dawley, plasma, other: intracolonic, 10 mg/kg, IC dose 10 mg/kg, Sucrose laurate 100 mg/kg
Experimental: In this Example, a screen of various absorption enhancers was assessed. […] Accordingly, sodium caprate was determined to be a preferred absorption enhancer. […] The following absorption enhancers were evaluated: sodium caprate (NaCl0, 100 mg/kg), SNAC (100 mg/kg), sucrose laurate (100 mg/kg), Enteris A (proprietary technology of Enteris Pharma) (60 mg/kg), and Labrasol (100 mg/kg).
metric name: AUC(0-inf) (ng·h/mL)
Report the figure in ng·h/mL without appending any unit label.

According to the records, this molecule CC(=O)NCCCC[C@@H]1NC(=O)[C@H](Cc2c[nH]c3c(C)cccc23)NC(=O)[C@H]([C@@H](C)O)NC(=O)[C@H](CC(N)=O)NC(=O)[C@@H](NC(C)=O)C(C)(C)SSC(C)(C)[C@@H](C(=O)N[C@@H](Cc2ccc(OCCN)cc2)C(=O)N[C@@H](Cc2ccc3ccccc3c2)C(=O)NC2(C(=O)N[C@@H](CCC(=O)O)C(=O)N[C@@H](CC(N)=O)C(=O)N[C@@H](Cc3cccnc3)C(=O)N(C)CC(N)=O)CCOCC2)NC1=O displays AUC(0-inf) of 179
